# Assay Protocol: Pharmacokinetic / oral bioavailability study in rats (LC-MS/MS of plasma)
# Type: in vivo
# Details: male, Sprague-Dawley, rat, IV 2.5 mg/kg, read-out: T1/2 (terminal biological half-life) (converted)
Quantity Measured: half-life (min)
Give the value in min but do not write min after it.

// field: half-life; key: Cc1cc(C#N)cc(C)c1Oc1nc(Nc2ccc(C#N)cc2)nc(N)c1Br ; value = 68.4

###

# Assay Protocol: Pharmacokinetic / oral bioavailability study in rats (LC-MS/MS of plasma)
# Assay type: in vivo
# Details: male, Sprague-Dawley, rat, IV 2.5 mg/kg (solution in DMSO)
Quantity Measured: Cmax (ng/mL)
Give the value in ng/mL but do not write ng/mL after it.

// field: Cmax; key: Cc1cc(C#N)cc(C)c1Oc1nc(Nc2ccc(C#N)cc2)nc(N)c1Br ; value = 2360

###

# Assay Protocol: Solubility of etravirine in various media by phase solubility analysis (HPLC-UV)
# Assay type: physicochemical
# Details: oil or lipid, thermodynamic from solid; Coriander Oil, room temperature; read-out: Drug Solubility
Quantity Measured: solubility at 72 h
Hi, when you answer, please include the unit after the number. Thanks!

// field: solubility at 72 h; key: Cc1cc(C#N)cc(C)c1Oc1nc(Nc2ccc(C#N)cc2)nc(N)c1Br ; value = 740 µg/mL

###

# Assay Protocol: Solubility of etravirine in various media by phase solubility analysis (HPLC-UV)
# Type: physicochemical
# Details: organic solvent or mixture, thermodynamic from solid; 1-methyl-2-pyrrolidinone, room temperature; read-out: Drug Solubility
Quantity Measured: solubility at 72 h
Hi, when you answer, please include the unit after the number. Thanks!

// field: solubility at 72 h; key: Cc1cc(C#N)cc(C)c1Oc1nc(Nc2ccc(C#N)cc2)nc(N)c1Br ; value = 458 mg/mL

###

# Assay Protocol: Pharmacokinetic / oral bioavailability study in rats (LC-MS/MS of plasma)
# Type: in vivo
# Details: male, Sprague-Dawley, rat, IV 2.5 mg/kg
Quantity Measured: AUC
Hi, when you answer, please include the unit after the number. Thanks!

// field: AUC; key: Cc1cc(C#N)cc(C)c1Oc1nc(Nc2ccc(C#N)cc2)nc(N)c1Br ; value = 1660 ng·h/mL

###

# Assay Protocol: Solubility of etravirine in various media by phase solubility analysis (HPLC-UV)
# Type: physicochemical
# Details: oil or lipid, thermodynamic from solid; Olive Oil, room temperature; read-out: Drug Solubility
Quantity Measured: solubility at 72 h (µg/mL)
Give the value in µg/mL but do not write µg/mL after it.

// field: solubility at 72 h; key: Cc1cc(C#N)cc(C)c1Oc1nc(Nc2ccc(C#N)cc2)nc(N)c1Br ; value = 220

###

# Assay Protocol: Solubility of etravirine in various media by phase solubility analysis (HPLC-UV)
# Assay type: physicochemical
# Details: oil or lipid, thermodynamic from solid; Lavender Oil, room temperature; read-out: Drug Solubility
Quantity Measured: solubility at 72 h (µg/mL)
Give the value in µg/mL but do not write µg/mL after it.

// field: solubility at 72 h; key: Cc1cc(C#N)cc(C)c1Oc1nc(Nc2ccc(C#N)cc2)nc(N)c1Br ; value = 1230

###

# Assay Protocol: Solubility of etravirine in various media by phase solubility analysis (HPLC-UV)
# Assay type: physicochemical
# Details: organic solvent or mixture, thermodynamic from solid; PEG 400, room temperature; read-out: Drug Solubility
Quantity Measured: solubility at 72 h (mg/mL)
Give the value in mg/mL but do not write mg/mL after it.

// field: solubility at 72 h; key: Cc1cc(C#N)cc(C)c1Oc1nc(Nc2ccc(C#N)cc2)nc(N)c1Br ; value = 71.6

###

# Assay Protocol: Solubility of etravirine in various media by phase solubility analysis (HPLC-UV)
# Assay type: physicochemical
# Details: thermodynamic from solid; Water, room temperature; read-out: Drug Solubility
Quantity Measured: solubility at 72 h (µg/mL)
Give the value in µg/mL but do not write µg/mL after it.

// field: solubility at 72 h; key: Cc1cc(C#N)cc(C)c1Oc1nc(Nc2ccc(C#N)cc2)nc(N)c1Br [Etravirine] ; value = 3.97

###

# Assay Protocol: Solubility of etravirine in various media by phase solubility analysis (HPLC-UV)
# Type: physicochemical
# Details: distilled water, water, thermodynamic from solid; read-out: intrinsic solubility
Quantity Measured: solubility at 72 h (µg/mL)
Give the value in µg/mL but do not write µg/mL after it.

// field: solubility at 72 h; key: Cc1cc(C#N)cc(C)c1Oc1nc(Nc2ccc(C#N)cc2)nc(N)c1Br ; value = 3.9

###

# Assay Protocol: Solubility of etravirine in various media by phase solubility analysis (HPLC-UV)
# Format: physicochemical
# Details: organic solvent or mixture, thermodynamic from solid; Tween 20, room temperature; read-out: Drug Solubility
Quantity Measured: solubility at 72 h (mg/mL)
Give the value in mg/mL but do not write mg/mL after it.

// field: solubility at 72 h; key: Cc1cc(C#N)cc(C)c1Oc1nc(Nc2ccc(C#N)cc2)nc(N)c1Br ; value = 55.8

###

# Assay Protocol: Solubility of etravirine in various media by phase solubility analysis (HPLC-UV)
# Format: physicochemical
# Details: oil or lipid, thermodynamic from solid; Linseed Oil, room temperature; read-out: Drug Solubility
Quantity Measured: solubility at 72 h
Hi, when you answer, please include the unit after the number. Thanks!

// field: solubility at 72 h; key: Cc1cc(C#N)cc(C)c1Oc1nc(Nc2ccc(C#N)cc2)nc(N)c1Br ; value = 790 µg/mL

###

# Assay Protocol: Solubility of etravirine in various media by phase solubility analysis (HPLC-UV)
# Assay type: physicochemical
# Details: oil or lipid, thermodynamic from solid; Caproyl 90, room temperature; read-out: Drug Solubility
Quantity Measured: solubility at 72 h (µg/mL)
Give the value in µg/mL but do not write µg/mL after it.

// field: solubility at 72 h; key: Cc1cc(C#N)cc(C)c1Oc1nc(Nc2ccc(C#N)cc2)nc(N)c1Br ; value = 5420

###

# Assay Protocol: Solubility of etravirine in various media by phase solubility analysis (HPLC-UV)
# Assay type: physicochemical
# Details: oil or lipid, thermodynamic from solid; Pluro oleique CC 497, room temperature; read-out: Drug Solubility
Quantity Measured: solubility at 72 h (µg/mL)
Give the value in µg/mL but do not write µg/mL after it.

// field: solubility at 72 h; key: Cc1cc(C#N)cc(C)c1Oc1nc(Nc2ccc(C#N)cc2)nc(N)c1Br [Etravirine] ; value = 1040

###

# Assay Protocol: Solubility of etravirine in various media by phase solubility analysis (HPLC-UV)
# Assay type: physicochemical
# Details: oil or lipid, thermodynamic from solid; Peanut Oil, room temperature; read-out: Drug Solubility
Quantity Measured: solubility at 72 h (µg/mL)
Give the value in µg/mL but do not write µg/mL after it.

// field: solubility at 72 h; key: Cc1cc(C#N)cc(C)c1Oc1nc(Nc2ccc(C#N)cc2)nc(N)c1Br ; value = 2190

###

# Assay Protocol: Solubility of etravirine in various media by phase solubility analysis (HPLC-UV)
# Format: physicochemical
# Details: organic solvent or mixture, thermodynamic from solid; Labrasole, room temperature; read-out: Drug Solubility
Quantity Measured: solubility at 72 h
Hi, when you answer, please include the unit after the number. Thanks!

// field: solubility at 72 h; key: Cc1cc(C#N)cc(C)c1Oc1nc(Nc2ccc(C#N)cc2)nc(N)c1Br ; value = 61 mg/mL
